assay: cytotoxicity in HPDE-C7 cells, cell-based, fluorescence, HTS (AID 430); conditions: HPDE-C7 pancreatic duct cells viability, at 10 µM, hits give high values;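 note: cells exposed to compound for 48 hours before viability readout; 0% = vehicle and 100% = reference cytotoxic drug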
The campaign covered roughly 63,000 compounds. About 1,100 (1.7%) were called active. The list comes from a sample in which actives are over-represented; it also holds close analogues and randomly drawn compounds. Results with a measured potency or affinity are listed apart.
readout label: cytotoxicity (%)
Kindly answer with a numeric value in %, unit omitted.

Solved cases below.
1) O=C(c1ccco1)N1CCN(c2nc(C(F)(F)F)nc3c2nnn3Cc2ccccc2)CC1 : 11.6
2) CCOc1ccc2nc(NCCO)[nH]c2c1 : -2.1
3) COC(=O)c1ccc(Oc2cc(C)nc(NCc3ccccc3)n2)cc1 : -4.2
4) O=C1CC(c2ccco2)CC(O)=C1C=NCCO (configuration not stated) : 5.2

Request the reported cytotoxicity associated with "COc1ccc(C(=O)Nc2nc3ccccc3[nH]2)cc1OC"
-5.6

Would you mind telling me what cytotoxicity value was observed for Cc1cc2cc(C(c3nnnn3Cc3ccco3)N3CCc4ccccc4C3)c(=O)[nH]c2cc1C (configuration not stated) ?
-4.7
